inhibition for assorted compounds
Molecular target: Protein deacetylase HDAC6 (Homo sapiens)
Sequence (whole entry): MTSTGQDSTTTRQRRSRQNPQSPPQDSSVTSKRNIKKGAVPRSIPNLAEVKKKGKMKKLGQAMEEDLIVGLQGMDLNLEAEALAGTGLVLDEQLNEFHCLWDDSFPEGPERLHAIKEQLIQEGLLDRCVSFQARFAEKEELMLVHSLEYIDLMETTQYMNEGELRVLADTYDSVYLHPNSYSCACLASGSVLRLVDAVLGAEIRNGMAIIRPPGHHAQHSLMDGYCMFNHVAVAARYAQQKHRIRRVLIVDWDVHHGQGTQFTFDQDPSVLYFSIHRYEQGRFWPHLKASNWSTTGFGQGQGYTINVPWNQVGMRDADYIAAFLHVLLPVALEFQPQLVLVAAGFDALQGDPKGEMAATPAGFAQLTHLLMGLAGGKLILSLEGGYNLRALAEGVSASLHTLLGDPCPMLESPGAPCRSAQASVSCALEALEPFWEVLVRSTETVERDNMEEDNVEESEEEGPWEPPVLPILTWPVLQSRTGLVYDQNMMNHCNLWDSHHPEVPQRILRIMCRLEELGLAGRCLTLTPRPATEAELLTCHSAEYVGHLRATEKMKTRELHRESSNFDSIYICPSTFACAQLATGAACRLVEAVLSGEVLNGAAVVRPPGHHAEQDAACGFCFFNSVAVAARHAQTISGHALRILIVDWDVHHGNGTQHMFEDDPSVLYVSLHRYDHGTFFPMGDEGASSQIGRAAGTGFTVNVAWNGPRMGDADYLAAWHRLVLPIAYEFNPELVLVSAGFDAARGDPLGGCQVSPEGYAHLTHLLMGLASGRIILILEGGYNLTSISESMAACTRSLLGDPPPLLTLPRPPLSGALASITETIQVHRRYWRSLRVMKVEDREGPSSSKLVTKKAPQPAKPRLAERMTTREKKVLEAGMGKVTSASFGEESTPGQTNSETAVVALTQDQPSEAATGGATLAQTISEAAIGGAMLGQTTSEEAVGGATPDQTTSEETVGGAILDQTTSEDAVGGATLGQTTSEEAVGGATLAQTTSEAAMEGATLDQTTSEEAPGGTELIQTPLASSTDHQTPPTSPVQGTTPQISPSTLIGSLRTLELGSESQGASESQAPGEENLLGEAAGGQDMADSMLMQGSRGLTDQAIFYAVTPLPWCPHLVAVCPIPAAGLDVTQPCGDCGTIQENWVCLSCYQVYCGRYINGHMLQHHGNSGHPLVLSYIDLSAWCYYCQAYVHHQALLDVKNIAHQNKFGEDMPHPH
Settings: at 10 µM
Among all 5,600 compounds or so, about 390 (7%) showed an effect of 50% or more. Shown is part of a subset that was picked to be rich in strong results.
recorded endpoint: inhibition (%)

>>> experimental_value("COc1ccc(/C=C/C(=O)O)cc1")
-4.93
>>> experimental_value("NC(=O)Nc1sc(-c2ccc(F)cc2)cc1C(N)=O")
81.4
>>> experimental_value("NC(=O)Nc1cc(-c2cccc(F)c2)sc1C(=O)N[C@H]1CCCNC1")
8.78
>>> experimental_value("Cc1ccc(-n2nc(C(C)(C)C)cc2NC(=O)Nc2ccc(OCCN3CCOCC3)c3ccccc23)cc1")
71.1
>>> experimental_value("CC(C)C(C(=O)Nc1nccs1)c1ccc(Cl)cc1 (stereo not given)")
10.4
>>> experimental_value("Cc1c(C2CCN(CCc3ccccc3)CC2)noc1-c1ccc(Cl)cc1")
5.51
>>> experimental_value("Cc1csc(-c2nnc(Nc3ccc(Oc4ncccc4-c4ccnc(N)n4)cc3)c3ccccc23)c1")
72.1
>>> experimental_value("CCOc1ccc(-n2c(C(C)N(Cc3cccnc3)C(=O)Cc3ccc(OC(F)(F)F)cc3)nc3ncccc3c2=O)cc1 (racemic)")
6.86
>>> experimental_value("O=C(O)[C@H]1C[C@@H](CP(=O)(O)O)CCN1")
7.25
>>> experimental_value("COc1cccc(CN(C(=O)CC(C)(C)C)[C@H]2C[C@@H](C(=O)N3CCNCC3)N(Cc3ccc4c(c3)OCO4)C2)c1")
2.2
>>> experimental_value("Cc1cc(OCCN2CCOCC2)nn1-c1ccc2ccccc2c1")
10.2
>>> experimental_value("O=C(O)CCc1cc(I)c(Oc2ccc(O)cc2)c(I)c1")
-9.91
>>> experimental_value("Nc1nc2c(c(N3CCNCC3)n1)CCC1=C2[C@@H]2CCCC[C@@H]2O1")
-3.26
>>> experimental_value("CC(C)(C)c1cc(NC(=O)Nc2ccc(-c3cn4c(n3)sc3cc(OCCN5CCOCC5)ccc34)cc2)no1")
1.57
>>> experimental_value("CC(=O)O[C@H]1CC[C@@]2(C)C(=CC[C@@H]3[C@@H]2CC[C@]2(C)C(c4cccnc4)=CC[C@@H]32)C1")
15.8
>>> experimental_value("COc1cc(NC(=O)c2ccc(-c3ccc(Cl)cc3)o2)cc(OC)c1")
1.11
>>> experimental_value("COc1ccc2cc1Oc1cc3c(cc1OC)CC[N+](C)(C)[C@H]3Cc1ccc(cc1)Oc1c(OC)c(OC)cc3c1[C@@H](C2)[N+](C)(C)CC3")
16.5
>>> experimental_value("CCn1c(=O)/c(=C2\\Sc3ccccc3N2C)s/c1=C\\c1cccc[n+]1CC")
3.58
>>> experimental_value("COc1cccc(-c2cc(NCc3ccc4c(c3)OCO4)nc(N)n2)c1")
68.7
>>> experimental_value("O=C1CNC(=O)CN1")
16.6
